Origin of the recorded values: ChEMBL document CHEMBL2331511

molecular target: Induced myeloid leukemia cell differentiation protein Mcl-1 (Homo sapiens, UniProt Q07820); assay: Binding affinity to his-tagged Mcl-1 (unknown origin) expressed in Escherichia coli BL21 (DE3) cells by ITC analysis; conditions: read-out: pKd (converted)
Sequence (Q07820 whole entry): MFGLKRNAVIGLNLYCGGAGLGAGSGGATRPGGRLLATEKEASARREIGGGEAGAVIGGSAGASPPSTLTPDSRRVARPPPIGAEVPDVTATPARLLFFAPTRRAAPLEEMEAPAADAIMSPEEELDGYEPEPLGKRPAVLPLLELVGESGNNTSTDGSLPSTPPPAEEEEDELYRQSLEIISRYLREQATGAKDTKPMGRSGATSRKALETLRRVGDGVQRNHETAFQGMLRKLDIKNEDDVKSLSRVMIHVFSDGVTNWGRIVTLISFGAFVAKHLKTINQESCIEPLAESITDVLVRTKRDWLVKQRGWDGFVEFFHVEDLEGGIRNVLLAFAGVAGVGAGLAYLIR
MEASURE: Kd (µM)

[P] N#C/C(=C\C=C\c1ccccc1)C(N)=O
[Q] N#C/C(=C\c1ccccc1)C(N)=O
[R] CCNC(=O)CC#N
[S] CCCNC(=O)CC#N
# input Endpoint returns the given compounds ordered by ascending Kd. Ranked list of labels, please, in the requested order.
# output P, Q, S, R
(P: 1.07 µM, Q: 2.19 µM, S: 4.27 µM, R: 6.61 µM)

----------
target: Induced myeloid leukemia cell differentiation protein Mcl-1 (Homo sapiens, UniProt Q07820); assay: Binding affinity to his-tagged Mcl-1 (unknown origin) expressed in Escherichia coli BL21 (DE3) cells by ITC analysis; conditions: read-out: pKd (converted)
MEASURE: Kd (µM)

Look over these answered cases.
N#C/C(=C\C=C\c1ccccc1)C(=O)NCc1ccccc1
0.158
CCC(C)(C)c1ccc(Oc2ccc3c(=C(C#N)C#N)c(=O)c4cccc2c43)cc1
1.45
N#CC(C#N)=c1c(=O)c2cccc3c(Oc4ccc(Cl)cc4)ccc1c32
4.27
COc1ccc(Oc2ccc3c(=C(C#N)C#N)c(=O)c4cccc2c43)cc1
4.9
N#CC1=C2C(=NC1=O)c1cccc3cccc2c13
1.82
N#CCC(=O)NCc1ccccc1
1.58

[I] CNC(=O)CC#N
[II] CC(C)c1ccc(Oc2ccc3c(=C(C#N)C#N)c(=O)c4cccc2c43)cc1
# input Smaller Kd value? Options are I and II Return value: the label identifying the chosen record.
# output II
(II: 3.72 µM, I: 8.32 µM)

----------
assay: Solubility of the compound in 100 % ethanol by HPLC analysis; type: physicochemical
MEASURE: solubility (µg/mL)
Numeric only. Scale: µg/mL

Kindly note the recorded solubility for N#C/C(=C\C=C\c1ccccc1)C(=O)NCc1ccccc1 , which is 4000

----------
molecular target: Induced myeloid leukemia cell differentiation protein Mcl-1 (Homo sapiens); assay: Binding affinity to his-tagged Mcl-1 (unknown origin) expressed in Escherichia coli BL21 (DE3) cells by ITC analysis; settings: read-out: Kd
pKd: −log10 of the molar value.
MEASURE: pKd

CCNC(=O)CC#N
5.18
O=C1C(=O)c2cccc3cccc1c23 [ACENAPHTHOQUINONE]
3.49
CC(C)c1ccc(Oc2ccc3c(=C(C#N)C#N)c(=O)c4cccc2c43)cc1
5.43

[A] N#C/C(=C\C=C\c1ccccc1)C(=O)NCc1ccccc1
[B] CCCNC(=O)CC#N
[C] N#CCC(=O)NCc1ccccc1
# input Ascending by pKd, please. Ranked list of labels, please, in the requested order.
# output B, C, A

[a] COc1ccc(Oc2ccc3c(=C(C#N)C#N)c(=O)c4cccc2c43)cc1
[b] N#CC1=C2C(=NC1=O)c1cccc3cccc2c13
[c] N#C/C(=C\C=C\c1ccccc1)C(N)=O
[d] CNC(=O)CC#N
# input Ascending by pKd, please. Ranked list of labels, please, in the requested order.
# output d, a, b, c

[I] N#C/C(=C\c1ccccc1)C(N)=O
[II] N#CC(C#N)=c1c(=O)c2cccc3c(Oc4ccc(Cl)cc4)ccc1c32
# input Between the two listed entries I and II , which has its pKd at the higher number? Return value: the label identifying the chosen record.
# output I
(I: 5.66, II: 5.37)
